test system: monochoria (Mo); assay: Test Example 4: selectivity for a crop plant by flooded paddy field treatment; assay type: in vivo; set-up: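 0-5 growth inhibition grade; 5 = over 90%; 4 = 70-90%; 3 = 50-70%; 2 = 30-50%; 1 = 10-30%; 0 = under 10%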; settings: monochoria, dose 25 gai/10a, 21st day after treatment, index per Table 44
METRIC: Mo (herbicidal effect index)
Answers are plain numbers.

* CSc1ncncc1C(C(C)C)N(C)C(=O)Cc1ccccc1 (racemic) | 5
* COC(=O)c1ncncc1C(C(C)C)N(C)C(=O)C(C)c1ccc(Cl)cc1 (single isomer, unassigned) | 4
* Cc1ccc(CC(=O)N(C)C(c2cncnc2C(F)F)C(C)C)cc1 (racemic) | 5
* Cc1cc(CC(=O)N(C)C(c2cncnc2C(F)(F)F)C(C)C)ccc1Cl (racemic) | 5
* CCCC(c1cncnc1C(C)C)N(C)C(=O)Cc1ccc(C)cc1 (racemic) | 5
* C#CCN(C(=O)Cc1ccc(Cl)cc1)C(CCC)c1cncnc1CC (racemic) | 5
* CC(C)C(c1cncnc1C(F)(F)Cl)N(C)C(=O)OCc1ccccc1 (racemic) | 4

Then this compound:
Documented Mo (herbicidal effect index) of CC(C)C(c1cncnc1-c1ccccc1)N(C)C(=O)Cc1ccc(Cl)cc1 (racemic) : 5

----------
test system: wheat (Tr); experiment: Test Example 5: selectivity for a crop plant by soil treatment in upland field; format: in vivo; set-up: scale not given here; settings: dose 25 gai/10a, 21st day after treatment, index per Table 44
Kindly state Tr (herbicidal effect index on crop) for each of the entries shown.
One number for each entry.

// worked examples, Tr (herbicidal effect index on crop) included
• CCC(c1cncnc1C(F)(F)F)N(C)C(=O)Cc1ccc(F)cc1 (racemic) = 2
• CC(C)C(c1cncnc1C(F)(F)F)N(C)C(=O)C=Cc1ccccc1 (racemic) = 1
• CN(C(=O)Cc1ccc(Cl)cc1)C(c1cncnc1C(F)(F)F)C(C)(C)C (racemic) = 1
• CCCN(C(=O)Cc1ccc(Cl)cc1)C(c1cncnc1C(F)(F)F)C(C)C (racemic) = 0
• CC(C)C(c1cncnc1C1CC1)N(C)C(=O)Cc1ccc(Cl)cc1 (racemic) = 1

Give Tr (herbicidal effect index on crop) for each of the items listed below.
1. CC(C)C(c1cncnc1C(F)(F)F)N(C(=O)Cc1ccccc1)C1CC1 (racemic)
2. Cc1ncncc1C(C(C)C)N(C)C(=O)Cc1ccc(Cl)cc1 (racemic)

5
4

----------
tested on: rice (Or); experiment: Test Example 4: selectivity for a crop plant by flooded paddy field treatment; format: in vivo; design: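 0-5 phytotoxicity grade; 5 = over 90%; 4 = 70-90%; 3 = 50-70%; 2 = 30-50%; 1 = 10-30%; 0 = under 10%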; conditions: rice transplanted at second leaf stage, dose 25 gai/10a, 21st day after treatment, index per Table 44
Kindly state Or (herbicidal effect index on crop) for each of the entries shown.
Give bare numbers.

• CC(c1cncnc1C(C)(C)C)N(C)C(=O)Cc1ccccc1 (racemic) = 0
• COc1ncncc1C(C(C)C)N(C)C(=O)Cc1ccccc1 (racemic) = 1
• Cc1ccc(CC(=O)N(C)C(c2ccccc2F)c2cncnc2C(F)(F)F)cc1 (racemic) = 0

Give Or (herbicidal effect index on crop) for each of the items listed below.
1. CCOC(OCC)C(c1cncnc1C(C)C)N(C)C(=O)Cc1ccc(F)cc1 (racemic)
2. CN(C(=O)Cc1ccc(Cl)s1)C(c1cncnc1C(F)(F)F)C(C)(C)C (racemic)
3. CC(C)C(c1cncnc1C(F)(F)F)N(CC#N)C(=O)Cc1ccc(F)cc1 (racemic)
4. CC(C)C(c1cncnc1C(F)(F)F)N(C)C(=O)CSc1ccccc1 (racemic)

1. 1
2. 0
3. 1
4. 1

Give Or (herbicidal effect index on crop) for each of the items listed below.
1. CCCc1ncncc1C(CCC)N(C)C(=O)Cc1ccc(C)cc1 (racemic)
2. CC(Oc1ccc(Cl)cc1)C(=O)N(C)C(c1cncnc1C(F)(F)F)C(C)C (mixture of isomers)

1. 0
2. 0
